Conditions: in chloroform, 278.15 K
readout.label: solubility (mole fraction)

* C1CC1N1C2C3N(C4CC4)C1C1N(C4CC4)C(C(N1C1CC1)N3C1CC1)N2C1CC1 | 0.0231

###

Conditions: in 1,2-dichloroethane, 283.15 K
readout.label: solubility (mole fraction)

- C1CC1N1C2C3N(C4CC4)C1C1N(C4CC4)C(C(N1C1CC1)N3C1CC1)N2C1CC1: 0.00279

###

Conditions: in acetone, 283.15 K
readout.label: solubility (mole fraction)

* C1CC1N1C2C3N(C4CC4)C1C1N(C4CC4)C(C(N1C1CC1)N3C1CC1)N2C1CC1 | 0.000333

###

Conditions: in acetone, 313.15 K
readout.label: solubility (mole fraction)

* C1CC1N1C2C3N(C4CC4)C1C1N(C4CC4)C(C(N1C1CC1)N3C1CC1)N2C1CC1 | 0.00103

###

Conditions: in ethyl acetate, 278.15 K
readout.label: solubility (mole fraction)

- C1CC1N1C2C3N(C4CC4)C1C1N(C4CC4)C(C(N1C1CC1)N3C1CC1)N2C1CC1: 0.00121

###

Settings: in dichloromethane, 303.15 K
readout.label: solubility (mole fraction)

* C1CC1N1C2C3N(C4CC4)C1C1N(C4CC4)C(C(N1C1CC1)N3C1CC1)N2C1CC1 | 0.0255

###

Settings: in 1,2-dichloroethane, 278.15 K
readout.label: solubility (mole fraction)

- C1CC1N1C2C3N(C4CC4)C1C1N(C4CC4)C(C(N1C1CC1)N3C1CC1)N2C1CC1: 0.00228

###

Conditions: in acetonitrile, 278.15 K
readout.label: solubility (mole fraction)

- C1CC1N1C2C3N(C4CC4)C1C1N(C4CC4)C(C(N1C1CC1)N3C1CC1)N2C1CC1: 5.71e-05

###

Conditions: in dichloromethane, 283.15 K
readout.label: solubility (mole fraction)

• C1CC1N1C2C3N(C4CC4)C1C1N(C4CC4)C(C(N1C1CC1)N3C1CC1)N2C1CC1 = 0.0147

###

Conditions: in tetrachloromethane, 313.15 K
readout.label: solubility (mole fraction)

• C1CC1N1C2C3N(C4CC4)C1C1N(C4CC4)C(C(N1C1CC1)N3C1CC1)N2C1CC1 = 0.0568

###

Settings: in 1,2-dichloroethane, 288.15 K
readout.label: solubility (mole fraction)

- C1CC1N1C2C3N(C4CC4)C1C1N(C4CC4)C(C(N1C1CC1)N3C1CC1)N2C1CC1: 0.00343

###

Conditions: in methanol, 318.15 K
readout.label: solubility (mole fraction)

• C1CC1N1C2C3N(C4CC4)C1C1N(C4CC4)C(C(N1C1CC1)N3C1CC1)N2C1CC1 = 0.000341

###

Settings: in n-hexane, 313.15 K
readout.label: solubility (mole fraction)

- C1CC1N1C2C3N(C4CC4)C1C1N(C4CC4)C(C(N1C1CC1)N3C1CC1)N2C1CC1: 0.0116

###

Conditions: in ethyl acetate, 293.15 K
readout.label: solubility (mole fraction)

- C1CC1N1C2C3N(C4CC4)C1C1N(C4CC4)C(C(N1C1CC1)N3C1CC1)N2C1CC1: 0.00204

###

Details: in cyclohexane, 303.15 K
readout.label: solubility (mole fraction)

• C1CC1N1C2C3N(C4CC4)C1C1N(C4CC4)C(C(N1C1CC1)N3C1CC1)N2C1CC1 = 0.0186
